System: MCF7
assayInfo: NCI tumour cell line growth inhibition, 48 h
Activity calls are given as the source filed them. Cut-off read from the data, not from the text of the source: active = GI50 up to about 1.1 µM and inactive = higher. Residues, ends and D or L forms follow the SMILES beside them. *: point of attachment. Boc = CC(C)(C)OC(=O)*; OBn = c1ccc(CO*)cc1
Outcomes: active, inactive

{"molecule": "CC(NC(=O)CNC(=O)OC(C)(C)C)C(=O)NC(Cc1ccccc1)C(=O)OCc1ccccc1 (stereo not drawn) (Boc-Gly-Ala-Phe-OBn; configuration not given here)", "assayTarget": "MCF7", "classification": "inactive"}
{"molecule": "CN(C)CCNc1ncnc2[nH]c(-c3ccc4ccccc4c3)nc12", "assayTarget": "MCF7", "classification": "inactive"}
{"molecule": "c1c[nH]c(CN2CCN(Cc3ncc[nH]3)CC2)n1", "assayTarget": "MCF7", "classification": "inactive"}
{"molecule": "C=C(C)C1Cc2c(cc(OC)c3c(=O)c4cccc(O)c4oc23)O1 (stereo not drawn)", "assayTarget": "MCF7", "classification": "active"}
{"molecule": "Oc1cccc2c1[nH]c1c(C3=C[C@@]4(O)CC/C=C\\CCCCN5CC[C@@H]3[C@]3(CC6/C=C\\CCCCN6[C@H]34)C5)nccc12 (stereo partly drawn)", "assayTarget": "MCF7", "classification": "active"}
{"molecule": "CC1(C)OC2[C@@H](CO[C@@]3([C@@H](O)CCO)OC(C)(C)O[C@@H]23)O1 (stereo partly drawn)", "assayTarget": "MCF7", "classification": "inactive"}
{"molecule": "Cc1ccc(S(=O)(=O)NCCCSCCN)cc1", "assayTarget": "MCF7", "classification": "inactive"}
{"molecule": "O=C1CC(CC(=O)c2ccc(Br)cc2)C(O)=C1C(=O)c1ccc(Br)cc1 (stereo not drawn)", "assayTarget": "MCF7", "classification": "inactive"}
{"molecule": "c1ccc(-c2cc(-c3cc(-c4ccccc4)n(-c4ccccc4)n3)nn2-c2ccccc2)cc1", "assayTarget": "MCF7", "classification": "inactive"}
{"molecule": "CC1=CC(C/C(C)=C/COc2ccc3ccc(=O)oc3c2)OC1=O (stereo not drawn)", "assayTarget": "MCF7", "classification": "inactive"}
{"molecule": "CCOC(CI)O[C@@H]1C=C[C@H](OC(C)=O)C1 (stereo partly drawn)", "assayTarget": "MCF7", "classification": "inactive"}
{"molecule": "CC12CCC3[C@@H](CC3(C)C)C(O)(CCC1=O)C2 (stereo partly drawn)", "assayTarget": "MCF7", "classification": "inactive"}
{"molecule": "c1ncc(C23C4C5C6C4C2C6C53)[nH]1 (stereo not drawn)", "assayTarget": "MCF7", "classification": "inactive"}
{"molecule": "C=C1C2C[C@@H]3O[C@H]4C[C@H]5O[C@@]6(C[C@@H]7O[C@]8(C[C@H](C)[C@@H]9O[C@@H]%10CC(CO)O[C@@H]%10C[C@@H]9O8)C[C@H](C)[C@@H]7O6)C[C@H]5O[C@H]4[C@H](C)[C@H]3OC(=O)C[C@H]3CC[C@@H]4OC5[C@H]6O[C@]7(CC[C@H]8CC(=C)[C@H](CC[C@@H](C[C@H]1C)O2)O8)CC6O[C@@H]5[C@@H](O7)[C@H]4O3 (stereo partly drawn)", "assayTarget": "MCF7", "classification": "active"}
{"molecule": "C=C1C(=O)[C@@]23CC[C@@H]4[C@@]5(C)CCC[C@@]4(OC5=O)[C@@]2(C)CC[C@@H]1C3", "assayTarget": "MCF7", "classification": "active"}
{"molecule": "Nc1ccc2c(c1)C1=NNC(=O)CC1C2 (stereo not drawn)", "assayTarget": "MCF7", "classification": "inactive"}
{"molecule": "O=C(Nc1ccccc1Cl)c1cc(S(=O)(=O)Nc2n[nH]c(=O)n2-c2ccccc2)c(S)cc1Cl", "assayTarget": "MCF7", "classification": "inactive"}
{"molecule": "O=C1Nc2ccccc2/C1=N/NC(=S)N1CCCCC1", "assayTarget": "MCF7", "classification": "inactive"}
{"molecule": "CSC(=S)CC(O)[C@@H]1CC2c3ccccc3C1c1ccccc12 (stereo partly drawn)", "assayTarget": "MCF7", "classification": "inactive"}
{"molecule": "Cc1ccc2[nH]c3c(c2c1)CCC/C3=N/N=C(N)N", "assayTarget": "MCF7", "classification": "inactive"}
{"molecule": "CCOC(=O)c1cn(-c2ccc([N+](=O)[O-])cc2)c(=S)n2c1nc1ccccc12", "assayTarget": "MCF7", "classification": "inactive"}
{"molecule": "Cc1cc2nc3c(C(O)CO)nn(-c4ccccc4)c3nc2cc1C (stereo not drawn)", "assayTarget": "MCF7", "classification": "inactive"}
{"molecule": "O=C(Cn1c(C(=O)/C=C/c2ccc(Cl)c(Cl)c2)nc2ccccc21)c1ccccc1", "assayTarget": "MCF7", "classification": "inactive"}
{"molecule": "c1coc(-c2nccc3c2[nH]c2ccccc23)c1", "assayTarget": "MCF7", "classification": "inactive"}
{"molecule": "NNC(=O)CCC(NS(=O)(=O)c1ccc(Cl)cc1)C(=O)NN (stereo not drawn)", "assayTarget": "MCF7", "classification": "inactive"}
{"molecule": "COc1ccc2c(c1)c1c(n2CCN2CCOCC2)-c2cccc(OC)c2CC1", "assayTarget": "MCF7", "classification": "inactive"}
{"molecule": "O=c1c(Cc2c(O)ccc3ccccc23)nnc2sc(-c3nn4c(=O)c(Cc5c(O)ccc6ccccc56)nnc4s3)nn12", "assayTarget": "MCF7", "classification": "inactive"}
{"molecule": "Cc1ccc2nc(N/N=C/c3sccc3C)cc(C)c2c1", "assayTarget": "MCF7", "classification": "inactive"}
{"molecule": "Cn1c(=O)cc(N2CCCC2)[nH]c1=O", "assayTarget": "MCF7", "classification": "inactive"}
{"molecule": "CC1=NN(c2cccc(Cl)c2)C2(SCC(=O)N2c2nc3ccccc3s2)/C1=C\\c1ccc(N(C)C)cc1 (stereo not drawn)", "assayTarget": "MCF7", "classification": "inactive"}
{"molecule": "COc1cc(/C=C2/CCCc3ccccc3C2=O)cc(OC)c1OC", "assayTarget": "MCF7", "classification": "inactive"}
{"molecule": "COC1CC(C)(NC(=O)C(F)(F)F)C2OC(c3ccccc3)OCC2O1 (stereo not drawn)", "assayTarget": "MCF7", "classification": "inactive"}
{"molecule": "O=C1CC2c3ccccc3CCC2c2ccccc21 (stereo not drawn)", "assayTarget": "MCF7", "classification": "inactive"}
{"molecule": "CC(C)=CCC/C(C)=C/CC/C(C)=C/CSc1ccc(Cl)cc1C(=O)O", "assayTarget": "MCF7", "classification": "inactive"}
{"molecule": "CC1=C(C)C(=O)C2=C(OCCO2)C1=O", "assayTarget": "MCF7", "classification": "inactive"}
{"molecule": "N/N=C1\\CCCc2c1no[n+]2[O-]", "assayTarget": "MCF7", "classification": "inactive"}
{"molecule": "CCOC(=O)C1OC(=O)CC1C1(C(=O)OCC)C=CC(=O)O1 (stereo not drawn)", "assayTarget": "MCF7", "classification": "inactive"}
{"molecule": "C[C@H]1/C(=C/C(=O)OCCN(C)C)CC[C@H]2[C@H]1C(=O)C[C@H]1C(C)(C)[C@@H](O)CC[C@]21C", "assayTarget": "MCF7", "classification": "inactive"}

* * *

Tested on: A549
assayInfo: NCI tumour cell line growth inhibition, 48 h
Active and inactive are the calls of the source. Rule as the data show it: active = GI50 up to about 1.1 µM and inactive = higher.
Outcomes: active, inactive

{"compound": "O=C(N/N=C(/CCN1CCCC1)CC(c1ccccc1)c1c(O)c2ccccc2oc1=O)c1ccncc1 (stereo not given)", "assayTarget": "A549", "classification": "inactive"}
{"compound": "CC1=N/C(=C\\c2cccc([N+](=O)[O-])c2)C(=O)O1", "assayTarget": "A549", "classification": "inactive"}
{"compound": "CCOC(=O)c1cc(C2CCN(c3ccccc3)C2=O)c(C(=O)/C=C(/C)N)[nH]1 (stereo not given)", "assayTarget": "A549", "classification": "inactive"}
{"compound": "COc1ccc(C2C3CCc4ccccc4C3=NN2S(=O)(=O)c2cccc(C(=O)O)c2OC)cc1 (stereo not given)", "assayTarget": "A549", "classification": "inactive"}
{"compound": "C[N+](C)(C)CC(=O)N/N=C(\\C(=O)NC1=C(Cl)C(=O)c2ccccc2C1=O)C(C#N)c1csc(-c2ccc([N+](=O)[O-])cc2)n1 (stereo not given)", "assayTarget": "A549", "classification": "inactive"}
{"compound": "Cc1cn(C2C=CC(COP(=O)(OCC3=CC(=O)c4ccccc4C3=O)N(C)CCCCCl)O2)c(=O)[nH]c1=O (stereo not given)", "assayTarget": "A549", "classification": "inactive"}
{"compound": "C=C1C2C[C@@H]3O[C@H]4C[C@H]5O[C@@]6(C[C@@H]7O[C@]8(C[C@H](C)[C@@H]9O[C@@H]%10CC(CO)O[C@@H]%10C[C@@H]9O8)C[C@H](C)[C@@H]7O6)C[C@H]5O[C@H]4[C@H](C)[C@H]3OC(=O)C[C@H]3CC[C@@H]4OC5[C@H]6O[C@]7(CC[C@H]8CC(=C)[C@H](CC[C@@H](C[C@H]1C)O2)O8)CC6O[C@@H]5[C@@H](O7)[C@H]4O3 (stereo not given in full)", "assayTarget": "A549", "classification": "active"}
{"compound": "FC(F)(F)c1nc(Br)[nH]c1C(F)(F)F", "assayTarget": "A549", "classification": "inactive"}
{"compound": "Cc1ccc(S(=O)(=O)NCCCSCCN)cc1", "assayTarget": "A549", "classification": "inactive"}
{"compound": "COc1ccc(C(=O)c2sc(N(C)C)nc2-c2ccccc2)cc1", "assayTarget": "A549", "classification": "inactive"}
{"compound": "O=[N+]([O-])c1ccc(NSc2ccccc2)cc1", "assayTarget": "A549", "classification": "inactive"}
{"compound": "O=C(Nc1ccc(Cl)cc1)NS(=O)(=O)c1coc2cc(F)ccc2c1=O", "assayTarget": "A549", "classification": "inactive"}
{"compound": "Cc1ccc2nc(N/N=C/c3sccc3C)cc(C)c2c1", "assayTarget": "A549", "classification": "inactive"}
{"compound": "O=C(O)c1c[nH]c2c(ccc3ncccc32)c1=O", "assayTarget": "A549", "classification": "inactive"}
{"compound": "COc1cccc(C2=NC(C(C)C)CO2)c1OC (stereo not given)", "assayTarget": "A549", "classification": "inactive"}
